Exercise: state measured melting point for each of the molecules provided.

Sure, the documented melting point for CCn1c(O)c(C(c2ccc(C)cc2)c2c(O)n(CC)c(=S)n(CC)c2=O)c(=O)n(CC)c1=S [Compound 4] is 163 to 164 °C

For this molecule ( CCn1c(O)c(C(c2ccccc2)c2c(O)n(CC)c(=S)n(CC)c2=O)c(=O)n(CC)c1=S [Compound 3] ), measured melting point is 177 to 179 °C

Record summary for CCn1c(O)c(C(c2ccc(C#N)cc2)c2c(O)n(CC)c(=S)n(CC)c2=O)c(=O)n(CC)c1=S [Compound 5] : reported melting point = 199 to 200 °C

melting point reported for this molecule O=c1[nH]c(O)c(C(c2ccc([N+](=O)[O-])cc2)c2c(O)[nH]c(=O)[nH]c2=O)c(=O)[nH]1 : 227 °C (dec.)

// field: melting point; key: CCn1c(O)c(C(c2ccc(N(C)C)cc2[N+](=O)[O-])c2c(O)n(CC)c(=S)n(CC)c2=O)c(=O)n(CC)c1=S [Compound 14] ; value = 143 to 145 °C

Reported melting point ( CCn1c(O)c(C(c2ccc([N+](=O)[O-])cc2)c2c(O)n(CC)c(=S)n(CC)c2=O)c(=O)n(CC)c1=S [Compound 6] ) = 202 to 204 °C

Recorded melting point (molecule CCn1c(O)c(C(c2cccnc2)c2c(O)n(CC)c(=S)n(CC)c2=O)c(=O)n(CC)c1=S [Compound 19] ): 253 to 254 °C

In plain terms, CCn1c(O)c(C(c2ccc(OC)cc2)c2c(O)n(CC)c(=S)n(CC)c2=O)c(=O)n(CC)c1=S [Compound 10] has a documented melting point of 139 to 140 °C

molecule CCn1c(O)c(C(c2ccccc2[N+](=O)[O-])c2c(O)n(CC)c(=S)n(CC)c2=O)c(=O)n(CC)c1=S [Compound 13] , melting point observed: 172 to 173 °C
